experiment: Plasma pharmacokinetics of ALM201 in Phase I patients (validated LC-MS/MS, Phoenix WinNonlin); details: human, plasma, sc, 300 mg, Plasma concentration, geometric mean (CV%), 300 mg SC, day 18 cycle 4, sample collected at 7.0 hours, n = 1; LC-MS/MS
No end group written: not given here.

[
  {
    "Entry sequence": "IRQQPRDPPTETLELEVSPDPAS [ALM201]",
    "level at 7 h [ng/mL]": 387
  }
]

###

assay: Plasma pharmacokinetics of ALM201 in Phase I patients (validated LC-MS/MS, Phoenix WinNonlin); conditions: human, plasma, sc, 160 mg, Plasma concentration, geometric mean (CV%), 160 mg SC, day 1 cycle 1, 2 h after dosing, n = 3; LC-MS/MS
No end group written: not given here.

[
  {
    "Entry sequence": "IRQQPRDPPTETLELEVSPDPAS [ALM201]",
    "level at 2 h / ng/mL": 1480
  }
]

###

assay: Plasma pharmacokinetics of ALM201 in Phase I patients (validated LC-MS/MS, Phoenix WinNonlin); settings: human, plasma, sc, 20 mg, Cmax, Gmean (CV), 20 mg SC, day 3 cycle 1, n = 1; plasma LC-MS/MS
No end group written: not given here.
Measured parameter: Cmax (ng/mL)

[
  {
    "Entry sequence": "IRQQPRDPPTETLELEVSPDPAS [ALM201]",
    "Measurement": 614
  }
]

###

assay: Plasma pharmacokinetics of ALM201 in Phase I patients (validated LC-MS/MS, Phoenix WinNonlin); conditions: human, plasma, sc, 160 mg, Cmax, Gmean (CV), 160 mg SC, day 18 cycle 1, n = 3; plasma LC-MS/MS
No end group written: not given here.

[
  {
    "Entry sequence": "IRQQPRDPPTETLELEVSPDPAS [ALM201]",
    "Measurement unit": "ng/mL",
    "Cmax": 1350
  }
]

###

test: Plasma pharmacokinetics of ALM201 in Phase I patients (validated LC-MS/MS, Phoenix WinNonlin); conditions: human, plasma, sc, 200 mg, Plasma concentration, geometric mean (CV%), 200 mg SC, day 18 cycle 1, 0.5 h after dosing, n = 3; LC-MS/MS
No end group written: not given here.
Measured parameter: level at 0.5 h (ng/mL)

[
  {
    "Entry sequence": "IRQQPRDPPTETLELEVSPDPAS [ALM201]",
    "Measured parameter": "level at 0.5 h",
    "Measurement": 811
  }
]

###

test: Plasma pharmacokinetics of ALM201 in Phase I patients (validated LC-MS/MS, Phoenix WinNonlin); details: human, plasma, sc, 10 mg, Plasma concentration, geometric mean (CV%), 10 mg SC, day 18 cycle 1, 0.5 h after dosing, n = 1; LC-MS/MS
No end group written: not given here.

[
  {
    "Entry sequence": "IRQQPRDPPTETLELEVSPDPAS [ALM201]",
    "Measurement unit": "ng/mL",
    "level at 0.5 h": 188
  }
]

###

experiment: Plasma pharmacokinetics of ALM201 in Phase I patients (validated LC-MS/MS, Phoenix WinNonlin); conditions: human, plasma, sc, 300 mg, Plasma concentration, geometric mean (CV%), 300 mg SC, day 18 cycle 1, 1 h after dosing, n = 3; LC-MS/MS
No end group written: not given here.

[
  {
    "Entry sequence": "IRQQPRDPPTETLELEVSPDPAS [ALM201]",
    "level at 1 h": "2410 ng/mL"
  }
]
